Assay: Hematology assays in cynomolgus monkeys (Example 45)
Type: in vivo
Settings: day −14; escalating dose regimen
Method: Groups, each consisting of two male and three female monkeys, were injected subcutaneously with ISIS 416838, ISIS 416850, ISIS 416858, ISIS 416864, or ISIS 417002 in escalating doses. […] Body weights were measured weekly. […]
ASSAY READOUT: hematocrit (%)
Give bare numbers, in %.

Past entries and their recorded results:
INSERT INTO results (substance, reported) VALUES
  ('ISIS 416864: MOE gapmer, nucleobases 1275 to 1318 of SEQ ID NO: 1 (Table 8) (antisense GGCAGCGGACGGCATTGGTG; MOE gapmer, wing and gap sizes not given here)', 43),
  ('ISIS 417002: MOE gapmer, nucleobases 1275 to 1318 of SEQ ID NO: 1 (Table 8) (antisense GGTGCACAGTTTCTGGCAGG; MOE gapmer, wing and gap sizes not given here)', 44),
  ('ISIS 416838: MOE gapmer, nucleobases 1018 to 1042 of SEQ ID NO: 1 (Table 6) (antisense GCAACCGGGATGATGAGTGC; MOE gapmer, wing and gap sizes not given here)', 42),
  ('ISIS 416850: MOE gapmer, nucleobases 1275 to 1318 of SEQ ID NO: 1 (Table 8) (antisense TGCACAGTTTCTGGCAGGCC; MOE gapmer, wing and gap sizes not given here)', 41);

Now consider a different substance.
hematocrit lookup needed for ISIS 416858: MOE gapmer, nucleobases 1275 to 1318 of SEQ ID NO: 1 (Table 8) (antisense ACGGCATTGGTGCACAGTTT; MOE gapmer, wing and gap sizes not given here) , thanks.
43

---

Details: mouse, in vivo, sc, 50 mg/kg
e = 2'-O-(2-methoxyethyl) (MOE); d = 2'-deoxy (DNA)
Answer each item with its documented HCT.
One number for each entry, in %.

Past entries and their recorded results:
INSERT INTO measurements (substance, unit_spec, reported) VALUES
  ('ISIS 445503: 5-8-5 or 6-8-6 MOE microwalk gapmer (Table 44) (antisense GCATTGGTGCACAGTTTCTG; sugars from the 5'' end e6 d8 e6, backbone and methylation of C not given here)', '%', 46),
  ('ISIS 445532: 5-8-5 or 6-8-6 MOE microwalk gapmer (Table 44) (antisense CGGCATTGGTGCACAGTT; sugars from the 5'' end e5 d8 e5, backbone and methylation of C not given here)', '%', 48),
  ('ISIS 445509: 5-8-5 or 6-8-6 MOE microwalk gapmer (Table 44) (antisense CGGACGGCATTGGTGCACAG; sugars from the 5'' end e6 d8 e6, backbone and methylation of C not given here)', '%', 51),
  ('ISIS 445504: 5-8-5 or 6-8-6 MOE microwalk gapmer (Table 44) (antisense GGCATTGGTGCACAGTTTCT; sugars from the 5'' end e6 d8 e6, backbone and methylation of C not given here)', '%', 49),
  ('ISIS 445530: 5-8-5 or 6-8-6 MOE microwalk gapmer (Table 44) (antisense GCATTGGTGCACAGTTTC; sugars from the 5'' end e5 d8 e5, backbone and methylation of C not given here)', '%', 50);

Please go through the list and note HCT for each substance.
1. ISIS 445513, (antisense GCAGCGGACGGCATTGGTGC; 6-8-6 MOE gapmer, further chemistry not given here)
2. ISIS 445505: 5-8-5 or 6-8-6 MOE microwalk gapmer (Table 44) (antisense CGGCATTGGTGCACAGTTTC; sugars from the 5' end e6 d8 e6, backbone and methylation of C not given here)
3. ISIS 445498: 5-8-5 or 6-8-6 MOE microwalk gapmer (Table 44) (antisense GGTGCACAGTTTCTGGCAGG; sugars from the 5' end e6 d8 e6, backbone and methylation of C not given here)

1: 50; 2: 49; 3: 47

---

Answer each item with its documented RBC count.
Assay: Hematology assays in cynomolgus monkeys (Example 45)
Format: in vivo
Details: day 36; escalating dose regimen
Numbers only, in µL⁻¹.

Please go through the list and note RBC count for each substance.
1. ISIS 416864: MOE gapmer, nucleobases 1275 to 1318 of SEQ ID NO: 1 (Table 8) (antisense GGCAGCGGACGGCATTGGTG; MOE gapmer, wing and gap sizes not given here)
2. ISIS 416838: MOE gapmer, nucleobases 1018 to 1042 of SEQ ID NO: 1 (Table 6) (antisense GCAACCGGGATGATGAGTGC; MOE gapmer, wing and gap sizes not given here)
3. ISIS 417002: MOE gapmer, nucleobases 1275 to 1318 of SEQ ID NO: 1 (Table 8) (antisense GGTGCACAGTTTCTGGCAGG; MOE gapmer, wing and gap sizes not given here)

1: 5.6e+06; 2: 5.5e+06; 3: 5.4e+06

---

Conditions: mouse, in vivo, sc, 50 mg/kg
ASSAY READOUT: Lymphocyte (cells/μL)
One number for each entry, in cells/μL.

INSERT INTO measurements (substance, assay_readout, reported) VALUES
  ('ISIS 416860: MOE gapmer, nucleobases 1275 to 1318 of SEQ ID NO: 1 (Table 8) (antisense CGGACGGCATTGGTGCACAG; MOE gapmer, wing and gap sizes not given here)', 'Lymphocyte', 4889);

Lymphocyte lookup needed for ISIS 416858: MOE gapmer, nucleobases 1275 to 1318 of SEQ ID NO: 1 (Table 8) (antisense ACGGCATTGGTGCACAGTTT; MOE gapmer, wing and gap sizes not given here) , thanks.
5480

---

Answer each item with its documented hemoglobin.
Experiment: Hematology assays in cynomolgus monkeys (Example 45)
Type: in vivo
Conditions: day 71; escalating dose regimen
Give bare numbers, in g/dL.

Past entries and their recorded results:
INSERT INTO results (substance, reported) VALUES
  ('ISIS 416864: MOE gapmer, nucleobases 1275 to 1318 of SEQ ID NO: 1 (Table 8) (antisense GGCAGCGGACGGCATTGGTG; MOE gapmer, wing and gap sizes not given here)', 12.2),
  ('ISIS 416838: MOE gapmer, nucleobases 1018 to 1042 of SEQ ID NO: 1 (Table 6) (antisense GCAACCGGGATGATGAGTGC; MOE gapmer, wing and gap sizes not given here)', 12.7);

Now consider a different substance.
hemoglobin lookup needed for ISIS 416850: MOE gapmer, nucleobases 1275 to 1318 of SEQ ID NO: 1 (Table 8) (antisense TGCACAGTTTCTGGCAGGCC; MOE gapmer, wing and gap sizes not given here) , thanks.
12.3

---

Tested on: human Factor 11 mRNA
Assay: Antisense inhibition of human Factor 11 in HepG2 cells by microwalk gapmers, lipofectin, 75 nM (Example 3)
Type: cell-based
Conditions: HepG2 cells, lipofectin, gapmers targeted to nucleobases 1062 to 1091 of SEQ ID NO: 1
Strand notation (5' to 3'): a small letter for the sugar, then the base; units joined by * are phosphorothioate-linked, units joined directly phosphodiester-linked; [ ] holds rarer units or linkages, { } end groups; capitals alone tell only the bases. e = 2'-O-(2-methoxyethyl) (MOE); [5mC] = 5-methylcytosine; d = 2'-deoxy (DNA)
Please use the following % inhibition ranges when assigning a class: bin 1: < 80%; bin 2: ≥ 80% and < 90%; bin 3: ≥ 90%

INSERT INTO measurements (substance, category_label) VALUES
  ('413476 (antisense eT*eT*eG*eA*eG*dA*dT*dT*d[5mC]*dT*dT*dT*dG*dG*dG*e[5mC]*e[5mC]*eA*eT*eT) [compound 413476]', 'bin 3');

Band assignment needed for 416995 (antisense eT*eT*d[5mC]*dT*dT*dT*dG*dA*dG*dA*dT*dT*d[5mC]*dT*dT*eT*eG*eG*eG*e[5mC]) [compound 416995] please.
bin 1

---

Experiment: Hematology assays in cynomolgus monkeys (Example 45)
Format: in vivo
Conditions: day 36
Answer each item with its documented neutrophils.
Numbers only, in %.

INSERT INTO assay_data (substance, assay_readout, unit_spec, reported) VALUES
  ('ISIS 416858: MOE gapmer, nucleobases 1275 to 1318 of SEQ ID NO: 1 (Table 8) (antisense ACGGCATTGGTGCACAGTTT; MOE gapmer, wing and gap sizes not given here)', 'neutrophils', '%', 47);

Please go through the list and note neutrophils for each substance.
1. ISIS 416838: MOE gapmer, nucleobases 1018 to 1042 of SEQ ID NO: 1 (Table 6) (antisense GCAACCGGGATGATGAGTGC; MOE gapmer, wing and gap sizes not given here)
2. ISIS 416850: MOE gapmer, nucleobases 1275 to 1318 of SEQ ID NO: 1 (Table 8) (antisense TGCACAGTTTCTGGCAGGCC; MOE gapmer, wing and gap sizes not given here)
3. ISIS 416864: MOE gapmer, nucleobases 1275 to 1318 of SEQ ID NO: 1 (Table 8) (antisense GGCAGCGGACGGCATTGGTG; MOE gapmer, wing and gap sizes not given here)
4. ISIS 417002: MOE gapmer, nucleobases 1275 to 1318 of SEQ ID NO: 1 (Table 8) (antisense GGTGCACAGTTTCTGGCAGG; MOE gapmer, wing and gap sizes not given here)

[39, 57, 58, 61]
